Biological target: Mu-type opioid receptor (Homo sapiens)
Sequence (P35372 whole entry): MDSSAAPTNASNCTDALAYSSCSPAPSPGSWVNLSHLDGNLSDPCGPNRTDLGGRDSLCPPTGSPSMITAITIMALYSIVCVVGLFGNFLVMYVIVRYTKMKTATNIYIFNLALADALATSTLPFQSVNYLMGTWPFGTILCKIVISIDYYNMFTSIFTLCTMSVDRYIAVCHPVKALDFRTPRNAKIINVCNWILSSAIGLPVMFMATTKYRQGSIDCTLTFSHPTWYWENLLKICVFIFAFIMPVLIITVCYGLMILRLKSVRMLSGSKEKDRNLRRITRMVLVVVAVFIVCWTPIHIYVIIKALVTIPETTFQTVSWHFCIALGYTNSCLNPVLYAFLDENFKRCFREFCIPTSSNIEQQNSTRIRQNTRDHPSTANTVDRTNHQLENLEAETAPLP
Assay: Displacement of [3H]DAMGO from human recombinant mu opioid receptor expressed in CHO cells at 10 uM after 2 hrs by liquid scintillation counting
Type: cell-based
Kindly supply the reported Activity values for the records listed here.
Write the answer as a number in %, unit excluded.

# molecule COC(=O)[C@@H]1C[C@H](OC(C)=O)C(=O)[C@H]2[C@@]1(C)CC[C@H]1C(=O)O[C@H](/C=C/c3ccoc3)C[C@]21C ; its Activity = 78

Entry COC(=O)[C@@H]1C[C@H](OC(C)=O)C(=O)[C@H]2[C@@]1(C)CC[C@H]1C(=O)O[C@H](C(=O)c3ccoc3)C[C@]21C , Activity reported as 66

// COC(=O)[C@@H]1C[C@H](OC(C)=O)C(=O)[C@H]2[C@@]1(C)CC[C@H]1C(=O)O[C@H](C(=O)c3cc4ccccc4o3)C[C@]21C : Activity value = 100

Input COC(=O)[C@@H]1C[C@H](OC(C)=O)C(=O)[C@H]2[C@@]1(C)CC[C@H]1C(=O)O[C@H](C(=O)c3cccs3)C[C@]21C . Output Activity: 65

Recorded Activity (molecule COC(=O)[C@@H]1C[C@H](OC(C)=O)C(=O)[C@H]2[C@@]1(C)CC[C@H]1C(=O)O[C@H](C(=O)c3ccc(O)cc3)C[C@]21C ): 93

Reported Activity ( COC(=O)[C@@H]1C[C@H](OC(C)=O)C(=O)[C@H]2[C@@]1(C)CC[C@H]1C(=O)O[C@H](C(=O)c3cc4ccccc4s3)C[C@]21C ) = 58
